Origin of measurements: patent US7858635B2

Target: M4 muscarinic receptor (Homo sapiens, UniProt P08173)
Construct: expressed in transfected cells; host or cells: CHO cells (M4-CHO, under puromycin, zeocin and blasticidin selection)
Sequence (P08173 1-479): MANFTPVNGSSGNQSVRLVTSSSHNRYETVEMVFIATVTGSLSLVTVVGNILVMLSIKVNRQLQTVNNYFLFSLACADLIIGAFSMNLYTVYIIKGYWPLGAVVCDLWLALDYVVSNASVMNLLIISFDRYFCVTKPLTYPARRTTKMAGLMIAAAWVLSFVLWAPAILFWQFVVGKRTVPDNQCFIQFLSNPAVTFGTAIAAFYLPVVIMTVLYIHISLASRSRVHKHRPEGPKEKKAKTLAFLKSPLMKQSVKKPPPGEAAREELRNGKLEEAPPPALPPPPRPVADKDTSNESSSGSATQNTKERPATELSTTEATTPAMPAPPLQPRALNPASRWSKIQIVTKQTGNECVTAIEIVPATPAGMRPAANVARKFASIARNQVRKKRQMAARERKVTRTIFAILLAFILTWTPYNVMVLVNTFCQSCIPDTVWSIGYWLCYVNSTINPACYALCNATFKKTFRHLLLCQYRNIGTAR
Assay: Functional mobilization of intracellular calcium (FLIPR, Fluo-3), M4-CHO cells
Format: cell-based
Conditions: compound nos. 1-454; 100% efficacy is the maximum response obtained with the Carbachol control; read-out: M4 Efficacy
attribute.measured: Emax

[
  {
    "compound": "CN(C)C(=O)N1CC2(CCN(C3CCN(c4ccccn4)CC3)CC2)c2cc(F)ccc21",
    "result": "55 to 70%"
  },
  {
    "compound": "CC(C)OC(=O)N1C2CCC1CC(N1CCC3(CC1)COc1ccc(F)cc13)C2 (centres unmarked)",
    "result": "< 55%"
  },
  {
    "compound": "CCCOC(=O)N1C2CCC1CC(N1CCC3(CC1)COc1ccc(F)cc13)C2 (centres unmarked)",
    "result": "55 to 70%"
  },
  {
    "compound": "CCOC(=O)N1C2CCC1CC(N1CCC3(CC1)c1ccccc1C(=O)C3(C)C)C2 (centres unmarked)",
    "result": "55 to 70%"
  },
  {
    "compound": "CCOC(=O)N1C2CCC1CC(N1CCC3(CC1)CN(C(C)=O)c1c(F)cccc13)C2 (centres unmarked)",
    "result": "> 70%"
  },
  {
    "compound": "CCOC(=O)N1CCC(N2CCC3(CC2)CN(C(=O)c2ccc(OC)cc2)c2ccc(F)cc23)CC1",
    "result": "> 70%"
  },
  {
    "compound": "CCOC(=O)N1CCC(N2CCC3(CC2)CN(C(=O)C2CC2)c2ccc(F)cc23)CC1",
    "result": "> 70%"
  },
  {
    "compound": "O=C1CC2(CCN(C[C@@H]3C[C@H]4C=C[C@H]3C4)CC2)c2ccccc21",
    "result": "< 55%"
  },
  {
    "compound": "CC=CCOC(=O)N1C2CCC1CC(N1CCC3(CC1)CN(C(=O)N(C)C)c1ccc(F)cc13)C2 (centres unmarked)",
    "result": "< 55%"
  },
  {
    "compound": "CCCOC(=O)N1C2CCC1CC(N1CCC3(CC1)CN(C(=O)C1CC1)c1ccc(F)cc13)C2 (centres unmarked)",
    "result": "< 55%"
  },
  {
    "compound": "c1ccc2c(c1)NCC21CCN(CC2CC3CCC2C3)CC1 (centres unmarked)",
    "result": "< 55%"
  },
  {
    "compound": "CCOC(=O)N1CCC(N2CCC3(CC2)CN(C(C)=O)c2ccc(F)cc23)CC1",
    "result": "< 55%"
  },
  {
    "compound": "CCOC(=O)N1CCC(N2CCC3(CC2)CN(C(C)=O)c2ccc(-c4ccccc4C)cc23)CC1",
    "result": "< 55%"
  },
  {
    "compound": "COC(=O)N1CC2(CCN(C3CC4CCC(C3)N4C(=O)OC)CC2)c2cc(F)ccc21 (centres unmarked)",
    "result": "55 to 70%"
  }
]
